Data provenance is patent US10766893B2.

Measurement record for UniProt:P54750; quantity recorded: IC50.
Sequence (P54750 whole entry): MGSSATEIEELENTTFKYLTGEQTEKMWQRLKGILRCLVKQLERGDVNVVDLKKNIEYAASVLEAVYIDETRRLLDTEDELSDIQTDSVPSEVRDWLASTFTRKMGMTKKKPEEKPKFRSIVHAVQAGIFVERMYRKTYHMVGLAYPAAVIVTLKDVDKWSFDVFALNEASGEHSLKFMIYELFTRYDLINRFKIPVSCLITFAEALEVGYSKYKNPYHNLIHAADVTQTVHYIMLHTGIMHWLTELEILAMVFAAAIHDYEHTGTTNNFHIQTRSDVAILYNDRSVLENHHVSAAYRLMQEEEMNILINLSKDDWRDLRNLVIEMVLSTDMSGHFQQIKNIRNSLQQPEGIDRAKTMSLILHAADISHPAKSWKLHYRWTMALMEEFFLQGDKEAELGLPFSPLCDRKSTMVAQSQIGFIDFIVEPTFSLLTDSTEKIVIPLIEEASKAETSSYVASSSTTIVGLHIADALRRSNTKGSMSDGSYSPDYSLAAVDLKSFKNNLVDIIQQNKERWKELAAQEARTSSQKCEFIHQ
Lab note: write values as number then unit, every time.

// worked examples, IC50 included
>  <COMPOUND>
CCOc1cnccc1-c1cc(NCc2cccc(F)n2)c2c(n1)c(C)nn2C(C)C [Example 12b]

>  <SYSTEM NAME>
UniProt:P54750

>  <IC50>
22 nM

$$$$
>  <COMPOUND>
CCOc1cnccc1-c1cc(NCc2cccnc2F)c2c(n1)c(C)nn2C(C)C [Example 17b]

>  <SYSTEM NAME>
UniProt:P54750

>  <IC50>
20 nM

$$$$
>  <COMPOUND>
CCOc1nnccc1-c1cc(NCc2cnn(C)c2)c2c(n1)c(C)nn2C(C)CC (single isomer, unassigned) [Example 6b]

>  <SYSTEM NAME>
UniProt:P54750

>  <IC50>
1.9 nM

$$$$
>  <COMPOUND>
CCOc1cnccc1-c1cc(NCc2cccc(OC)n2)c2c(n1)c(C)nn2C(C)C [Example 25b]

>  <SYSTEM NAME>
UniProt:P54750

>  <IC50>
17 nM

$$$$
>  <COMPOUND>
COc1cnccc1-c1cc(NCc2cnn(C)c2)c2c(n1)c(C)nn2C(C)C [Example 29b]

>  <SYSTEM NAME>
UniProt:P54750

>  <IC50>
32 nM

$$$$
>  <COMPOUND>
CCOc1cnccc1-c1cc(NCc2cccnc2OC)c2c(n1)c(C)nn2C(C)C [Example 30b]

>  <SYSTEM NAME>
UniProt:P54750

>  <IC50>
27 nM

$$$$
>  <COMPOUND>
CCOc1ncccc1-c1cc(NCc2cccn3ccnc23)c2c(n1)c(C)nn2C(C)C

>  <SYSTEM NAME>
UniProt:P54750

>  <IC50>
6.6 nM

$$$$
>  <COMPOUND>
CCOc1nnccc1-c1cc(NCc2cnn(C)c2)c2c(n1)c(C)nn2C(C)CC (single isomer, unassigned) [Example 5b]

>  <SYSTEM NAME>
UniProt:P54750

>  <IC50>
25 nM

$$$$
>  <COMPOUND>
CCOc1ncccc1-c1cc(NCc2nccc3nncn23)c2c(n1)c(C)nn2C(C)C [Example 15a]

>  <SYSTEM NAME>
UniProt:P54750

>  <IC50>
30 nM

$$$$
>  <COMPOUND>
CCOc1cnccc1-c1cc(NCc2ccccn2)c2c(n1)c(C)nn2C(C)C [Example 15b]

>  <SYSTEM NAME>
UniProt:P54750

>  <IC50>
17 nM

$$$$

The compound CCOc1ncccc1-c1cc(NCc2cccc3oc(C)nc23)c2c(n1)c(C)nn2C(C)C [Example 11a] showed IC50 equal to 18 nM

The compound `CCOc1ncccc1-c1cc(NCc2cccc3ncoc23)c2c(n1)c(C)nn2C(C)C` showed IC50 equal to 45 nM

The compound `CCOc1ncccc1-c1cc(NCc2cccc3nc(C)nn23)c2c(n1)c(C)nn2C(C)C` showed IC50 equal to 11 nM

The compound CCOc1nnccc1-c1cc(NCc2ncc(F)cn2)c2c(n1)c(C)nn2C(C)C [Example 10b] showed IC50 equal to 21 nM

The compound CCOc1nnccc1-c1cc(NCc2cccc3ocnc23)c2c(n1)c(C)nn2C(C)C [Example 13a] showed IC50 equal to 39 nM

The compound CCOc1nnccc1-c1cc(NCc2cnc(C)s2)c2c(n1)c(C)nn2C(C)C [Example 20b] showed IC50 equal to 5.7 nM

The compound CCOc1nnccc1-c1cc(NCc2cccnc2F)c2c(n1)c(C)nn2C(C)C [Example 16b] showed IC50 equal to 18 nM

The compound CCOc1cnccc1-c1cc(NCc2cc[nH]n2)c2c(n1)c(C)nn2C(C)C [Example 13b] showed IC50 equal to 24 nM

The compound `CCOc1nnccc1-c1cc(NCc2nnc(C)o2)c2c(n1)c(C)nn2C(C)C` showed IC50 equal to 97 nM

The compound `CCOc1ncccc1-c1cc(NCc2cccn3cnnc23)c2c(n1)c(C)nn2C(C)C` showed IC50 equal to 4.7 nM

The compound CCOc1ncccc1-c1cc(NCc2nccc3nccn23)c2c(n1)c(C)nn2C(C)C [Example 16a] showed IC50 equal to 35 nM

The compound `CCOc1ncccc1-c1cc(NCc2cccc3ncnn23)c2c(n1)c(C)nn2C(C)C` showed IC50 equal to 18 nM

The compound `CCOc1nnccc1-c1cc(NCc2ccn(C)n2)c2c(n1)c(C)nn2C(C)C` showed IC50 equal to 5.2 nM

The compound CCOc1cnccc1-c1cc(NCc2ccn(C)n2)c2c(n1)c(C)nn2C(C)C [Example 27b] showed IC50 equal to 17 nM

The compound CCOc1ncccc1-c1cc(NCc2ccc3oc(C)nc3c2)c2c(n1)c(C)nn2C(C)C [Example 12a] showed IC50 equal to 8.7 nM

The compound `CCOc1ncccc1-c1cc(NCc2cccc3nsnc23)c2c(n1)c(C)nn2C(C)C` showed IC50 equal to 53 nM

The compound CCCOc1cnccc1-c1cc(NCc2cnn(C)c2)c2c(n1)c(C)nn2C(C)C [Example 31b] showed IC50 equal to 4.6 nM

The compound `CCCOc1nnccc1-c1cc(NCc2cnn(C)c2)c2c(n1)c(C)nn2C(C)C` showed IC50 equal to 3.2 nM

The compound CCOc1cnccc1-c1cc(NCc2ncn(C)n2)c2c(n1)c(C)nn2C(C)C [Example 19b] showed IC50 equal to 11 nM

The compound `CCOc1ncccc1-c1cc(NCc2cccn3cncc23)c2c(n1)c(C)nn2C(C)C` showed IC50 equal to 3.2 nM

The compound CCOc1cnccc1-c1cc(NCc2cnn(C)c2)c2c(n1)c(C)nn2C(C)CC (single isomer, unassigned) [Example 32b] showed IC50 equal to 57 nM

The compound Cc1nc2cccc(-c3cc(NCc4cnn(C)c4)c4c(n3)c(C)nn4C(C)C)c2o1 [Example 36b] showed IC50 equal to 14 nM

The compound `CCOc1nnccc1-c1cc(NCc2ncccn2)c2c(n1)c(C)nn2C(C)C` showed IC50 equal to 11 nM
